assay: yeast display, Sf9 membrane polyspecificity reagent, FACS + sequencing; frameworks hold sequencing errors
experimental-endpoint: polyreactivity (PSR sort gate)

# example entries with known answers
QVQLVESGGGLVQAGGSLRLSCAASGSIFHRNTMGWYRQAPGKERELVAAIRRGGSTYYADSVKGRFTISRDNAKNTVYLQMNSLKPEDTAVYYCAADFPGEYYYWGQGTQVTVSS: high polyreactivity
QVQLVESGGGLVQAGGSLRLSCAASGSTFETNAMGLYRQATRKERELVAAISYNGGSTYADSVKGRFTISRDNAKNTVYLHMNSLKPEDSAVYYCAAVRSPRGLGGYWGQGTQVTVAS: low polyreactivity
QVQLLESGGGLVQAGGSLRLSCAASGITFAKYAMGWYRQAPGKEREFVAAISTSGGSTYYADSVKGRFTISRDNAKNTVYLQMNSLKPEDTAVYYSNVETYIWYFLRYYNYWGQGTQVTVSS: high polyreactivity
QVQLVESGGGLVQAGGRIRLSCAASGIIFYPYAMGWYRQAPGKERELVAGISSSGGSTYYADSVKGRFTISRDNAKNTVYLQMNSLKPEDTAVYYCAAVRISRTPRGLYEYWGQGTQVTVSS: high polyreactivity

We now examine a further sequence.
[in] Returns the measured polyreactivity (PSR sort gate) for the input sequence. Input: QVQLVESGGGLVQAGGSLRLRCAASGITFKTYAMGWYRQAPGKERELVATINRGSRTNYADSVKGRFTISRDNAKNTVYLKMNSLKPEDTAVYYCAAHYTTFIPSPDGDYLGQGTQVTVSS
[out] low polyreactivity

----------
experiment: yeast display, Sf9 membrane polyspecificity reagent, FACS + sequencing; frameworks hold sequencing errors
experimental-endpoint: polyreactivity (PSR sort gate)

# example entries with known answers
QVQLVESGGGLVQAGGSLRLSCAASGFTFTRNTMGWYRQAPGKERELVAAITRGGSTNYADSVKGRFTITRDNAKNTVYLQMNSLKPEDTAVYYCAADAPFDRPYNYWGQGTQVTVSS: low polyreactivity
QVQLVESGGGLVQAGGSLRLSCAASGFIFNRYAMGWYRQAPGKERELVATITRRGGRTYFADSVKGRFTISRDNAKNTVYLQMNSLKPEDTAVYYCNADPNVPVETFDYWGQGTQVTVSS: high polyreactivity
QVQLVESGGGLVQAGGSHRLSCAASGFIFRWYAMGWYRQAPGKERELVAAISRSGDSTYYADSVKGRFTISRDNAKNTVYLQMNSLKPDDTAVYYCAADDRYYTYGYDYWGQGTQVTVSS: low polyreactivity
QVQLVESGGGLVQAGGSLRLSCAASGSTSLSYVMGWYRQAPGKERELVASITSSGGSTYYADSVKGRFTISRDNAKNTVYLQMNSLKPEDTAVYYCNARSYIDPFSPTSYYRYYWGQGTQVTVSS: high polyreactivity
QVQLVESGGGLVQAGGSLRLSCAASGSIFRGNAMGWYRQAPGKERELVAAISWSGASTYYADSVKGRFTISRDNAKNTVYLQMNSLKPEDTAVYYCAAVQWTGYPFDYWGQGTQVTVSS: high polyreactivity
QVQLVESGGGLVQAGGSLRLSCAASGRIFVVYAMGWYRQAPGKERELVAAITGGGRTNYADSVKGRFTISRDNAKNTVYLQKNSLKPGDSAVYYCAAGTRSDARRYYYWGQGTQVTVSS: low polyreactivity
QVQLVESGGGLVQAGGSLRLSSAASGFIFRRYAMGWYRQAPGKERELVAAISGSGGRTYYADSVKGRFTISRDNAKNSVYLQMNSLKPEDTAVYYCAADQGSLLYDYWGQGTKVTVSS: high polyreactivity
QVQLVESGGGILQAGGSLRLSCAASGFILSPNTMAWSRQAPGKERELVAAISSDVSTYADSVKGRFTISRDNAKNTVYLQINSLKPEDTAVYYCNADDFGYASYEYWGQATQVTVSS: low polyreactivity

Provide the reported polyreactivity (PSR sort gate) of each entry below, same order.
1. QVQLVESGGRLVQAGRSLRLSCAASGSTFYLYAMGWYRQAPGKERELVASISIGGSTNYADSVKGRFTISRDNAKNTVYLQMNSLKPEDTAVYYCNADYYYVRTVRRLGYWGQGSQVTVSS
2. QVQLVESGGGLVQAGGSLRLSCAASGSTFGYYTMGWYRQAPGKERELVAAISRSGGRTYYADSVKGRFTISRDNAKKAVYLQMNSLKPEVTAVFYCNADGTRYAGDDYWGQGTQVTVSS
3. QVQLGESGGGLVQAGGSLRLSCAASGFIFRAYAMGWYRQAPGKERELVASISSRGGSTYYADSVKGRFTISRDNAKNTVYLQMNSLKPEDTAVYYCNAVYTYFPGWKYDYWGQGTQVTVSS

[out]
1: low polyreactivity; 2: high polyreactivity; 3: high polyreactivity
